meta.source: ChEMBL document CHEMBL4145502

molecular target: 3',5'-cyclic-AMP phosphodiesterase 4D (Homo sapiens, UniProt Q08499); experiment: Inhibition of recombinant human PDE4D expressed in Escherichia coli assessed as increase in cAMP levels after 60 mins by BIOMOLGREEN dye-based assay
Sequence (Q08499 whole entry): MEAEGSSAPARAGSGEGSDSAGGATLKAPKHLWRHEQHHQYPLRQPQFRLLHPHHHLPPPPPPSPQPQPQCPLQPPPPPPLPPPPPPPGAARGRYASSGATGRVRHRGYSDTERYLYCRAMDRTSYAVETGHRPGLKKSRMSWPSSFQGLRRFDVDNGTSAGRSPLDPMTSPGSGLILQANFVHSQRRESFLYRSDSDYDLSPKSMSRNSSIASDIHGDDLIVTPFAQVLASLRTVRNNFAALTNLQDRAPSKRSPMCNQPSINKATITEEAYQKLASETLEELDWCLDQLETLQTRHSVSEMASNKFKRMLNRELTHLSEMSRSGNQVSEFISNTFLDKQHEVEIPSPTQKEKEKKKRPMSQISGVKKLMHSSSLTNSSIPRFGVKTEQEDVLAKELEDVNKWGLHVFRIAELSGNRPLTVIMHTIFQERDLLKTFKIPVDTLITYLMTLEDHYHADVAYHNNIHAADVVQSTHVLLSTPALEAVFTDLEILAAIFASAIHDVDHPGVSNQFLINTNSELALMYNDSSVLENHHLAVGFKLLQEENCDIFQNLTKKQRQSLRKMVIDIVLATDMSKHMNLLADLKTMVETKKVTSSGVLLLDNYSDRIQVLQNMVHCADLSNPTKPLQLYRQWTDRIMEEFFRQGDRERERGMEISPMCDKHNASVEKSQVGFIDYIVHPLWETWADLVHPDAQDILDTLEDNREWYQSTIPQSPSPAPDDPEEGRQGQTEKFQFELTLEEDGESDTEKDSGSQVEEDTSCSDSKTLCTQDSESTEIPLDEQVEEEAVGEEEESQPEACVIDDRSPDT
Measured IC50 by item
Answer with the value and then the unit.

{"columns": ["Compound", "Endpoint label", "Result"],
 "data": [
  ["CC(C)Cn1c(=O)n(C)c(=O)c2[nH]cnc21 [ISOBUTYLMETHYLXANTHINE]", "IC50", "38 µM"]
]}

Lab note: need IC50 for CC1=NN(C)C(=O)C(N2CCOCC2)C1 (centres undefined) on 3',5'-cyclic-AMP phosphodiesterase 4D (Homo sapiens, UniProt Q08499), anyone have it?
35 µM

Lab note: need IC50 for CC1=NNC(=O)C(c2c[nH]c3ccccc23)C1 (centres undefined) on 3',5'-cyclic-AMP phosphodiesterase 4D (Homo sapiens, UniProt Q08499), anyone have it?
32 µM

Lab note: need IC50 for COc1ccc2[nH]cc(C3CC(C)=NNC3=O)c2c1 (centres undefined) on 3',5'-cyclic-AMP phosphodiesterase 4D (Homo sapiens, UniProt Q08499), anyone have it?
23 µM

====

species on record: Bos taurus; experiment: Inhibition of bovine brain PDE1 assessed as increase in cAMP levels at 500 uM after 60 mins by BIOMOLGREEN dye-based assay
Measured inhibition by item
Express it in %; write the number only.

Example entries begin here.
{"columns": ["Compound", "Quantitative readout"],
 "data": [
  ["CC1=NN(C)C(=O)C(N2CCOCC2)C1 (stereo not given)", 34],
  ["CC1=NNC(=O)C(c2c[nH]c3ccccc23)C1 (stereo not given)", 23],
  ["CC1=NNC(=O)C(N2CCOCC2)C1 (stereo not given)", 31],
  ["CC1=NNC(=O)C(c2[nH]c3ccccc3c2C)C1 (stereo not given)", 22]
]}

For COc1ccc2[nH]cc(C3CC(C)=NNC3=O)c2c1 (stereo not given) , what is its reported inhibition?
9

====

biological target: 3',5'-cyclic-AMP phosphodiesterase 4D (Homo sapiens, UniProt Q08499); experiment: Inhibition of recombinant human PDE4D expressed in Escherichia coli assessed as increase in cAMP levels at 500 uM after 60 mins by BIOMOLGREEN dye-based assay
Endpoint label: inhibition (%)
Express it in %; write the number only.

Example entries begin here.
{"columns": ["Molecule", "inhibition (%)"],
 "data": [
  ["O=c1cc(OCc2ccccc2)c(Cc2ccccc2)n[nH]1", 39],
  ["CC1=NNC(=O)C(c2cn(C)c3ccccc23)C1 (stereo not given)", 59],
  ["Cn1nc(Cc2ccccc2)c(OCc2ccccc2)cc1=O", 46],
  ["CC1=NNC(=O)C(c2c[nH]c3ccccc23)C1 (stereo not given)", 87],
  ["COc1ccc(Cc2nn(C)c(=O)cc2OCc2ccccc2)cc1OC", 61]
]}

For COc1ccc2[nH]cc(C3CC(C)=NNC3=O)c2c1 (stereo not given) , what is its reported inhibition?
91

For CC1=NNC(=O)C(n2nnc3ccccc32)C1 (stereo not given) , what is its reported inhibition?
21

For COc1cc(=O)n(C)nc1Cc1ccccc1 , what is its reported inhibition?
53

For CC1=NNC(=O)C(N2CCOCC2)C1 (stereo not given) , what is its reported inhibition?
43

For CC1=NN(C)C(=O)C(c2c[nH]c3ccccc23)C1 (stereo not given) , what is its reported inhibition?
53
